Test system: Mus musculus
Assay: Anticonvulsant activity in CF1 mouse assessed as inhibition of 6 Hz corneal stimulation-induced limbic seizures at 4 mg/kg, ip administered 60 mins before 6 Hz corneal stimulation
Assay type: functional, organism-based
Parameters: dose 4 mg/kg
Details: Limbic system
Activity calls are given as the source filed them. The rule behind the calls is not given here.
// one of active, inactive, no free text

Check out these entries, answers already filled in.
[
  {
    "smiles text": "CCCCCCCCCCCCCCCC(=O)NCCCC[C@@H](NC(=O)[C@H](CCCCN)NC(=O)[C@@H](CCCCN)NC(=O)[C@H]1CCCN1C(=O)CNC(=O)[C@H](CC(C)C)NC(=O)[C@H](CC(C)C)NC(=O)[C@H](Cc1ccc(O)cc1)NC(=O)CNC(=O)[C@H](C)NC(=O)[C@H](CO)NC(=O)[C@H](CC(N)=O)NC(=O)[C@H](CC(C)C)NC(=O)[C@@H](NC(=O)[C@H](Cc1c[nH]c2ccccc12)NC(=O)CNC)[C@@H](C)O)C(=O)N[C@@H](CCCCN)C(N)=O",
    "class name": "active"
  },
  {
    "smiles text": "CCCCCCCCCCCCCCCC(=O)NCCCC[C@H](NC(=O)[C@H](CCCCN)NC(=O)[C@H](CCCCN)NC(=O)[C@@H]1CCCN1C(=O)CNC(=O)[C@H](CC(C)C)NC(=O)[C@H](CC(C)C)NC(=O)[C@H](Cc1ccc(O)cc1)NC(=O)CNC(=O)[C@H](C)NC(=O)[C@H](CO)NC(=O)[C@H](CC(N)=O)NC(=O)[C@H](CC(C)C)NC(=O)[C@@H](NC(=O)[C@H](Cc1c[nH]c2ccccc12)NC(=O)CNC)[C@@H](C)O)C(=O)N[C@@H](CCCCN)C(N)=O",
    "class name": "active"
  },
  {
    "smiles text": "CCCCCCCCCCCCCCCC(=O)NCCCC[C@H](NC(=O)[C@H](C)NC(=O)[C@H](Cc1cnc[nH]1)NC(=O)[C@@H]1CCCN1C(=O)CNC(=O)[C@H](CC(C)C)NC(=O)[C@H](CC(C)C)NC(=O)[C@H](Cc1ccc(O)cc1)NC(=O)CNC(=O)[C@H](C)NC(=O)[C@H](CO)NC(=O)[C@H](CC(N)=O)NC(=O)[C@H](CC(C)C)NC(=O)[C@@H](NC(=O)[C@H](Cc1c[nH]c2ccccc12)NC(=O)CNC)[C@@H](C)O)C(N)=O",
    "class name": "inactive"
  }
]

Qu. State the result this test recorded for CC(C)C[C@H](NC(=O)[C@H](CC(C)C)NC(=O)[C@H](Cc1ccc(O)cc1)NC(=O)CNC(=O)[C@H](C)NC(=O)[C@H](CO)NC(=O)[C@H](CC(N)=O)NC(=O)[C@H](CC(C)C)NC(=O)[C@@H](NC(=O)[C@H](Cc1c[nH]c2ccccc12)NC(=O)CN)[C@@H](C)O)C(=O)NCC(=O)N1CCC[C@H]1C(=O)N[C@@H](Cc1cnc[nH]1)C(=O)N[C@@H](C)C(=O)N[C@H](C(N)=O)C(C)C .
Ans. inactive

Qu. State the result this test recorded for CCCCCCCCCCCCCCCC(=O)NCCCC[C@H](NC(=O)[C@H](CCCCN)NC(=O)[C@H](CCCCN)NC(=O)[C@H](CC(C)C)NC(=O)[C@H](CC(C)C)NC(=O)[C@H](Cc1ccc(O)cc1)NC(=O)CNC(=O)[C@H](C)NC(=O)[C@H](CO)NC(=O)[C@H](CC(N)=O)NC(=O)[C@H](CC(C)C)NC(=O)[C@@H](NC(=O)[C@H](Cc1c[nH]c2ccccc12)NC(=O)CNC)[C@@H](C)O)C(=O)N[C@@H](CCCCN)C(N)=O .
Ans. active

Qu. State the result this test recorded for CCCCCCCCCCCCCCCC(=O)NCCCC[C@H](NC(=O)[C@H](CCCCN)NC(=O)[C@@H]1CCCN1C(=O)CNC(=O)[C@H](CC(C)C)NC(=O)[C@H](CC(C)C)NC(=O)[C@H](Cc1ccc(O)cc1)NC(=O)CNC(=O)[C@H](C)NC(=O)[C@H](CO)NC(=O)[C@H](CC(N)=O)NC(=O)[C@H](CC(C)C)NC(=O)[C@@H](NC(=O)[C@H](Cc1c[nH]c2ccccc12)NC(=O)CNC)[C@@H](C)O)C(=O)N[C@@H](CCCCN)C(=O)N[C@@H](CCCCN)C(N)=O .
Ans. inactive

###

Test: Metabolic stability in rat serum assessed as half life at pH 7.5
Type: ADME, cell-free
Square brackets hold non-standard residues; d marks the D form. Peptide text beside a SMILES is read from it. * marks the point of attachment. Palmitoyl = CCCCCCCCCCCCCCCC(=O)*; Sar = CNCC(=O)O
Measured half-life, listed per entry for reference.
Lab book: enter the figure in h, no units written.

[
  {
    "compound": "CCCCCCCCCCCCCCCC(=O)NCCCC[C@H](NC(=O)[C@H](CCCN=C(N)N)NC(=O)[C@H](CCCN=C(N)N)NC(=O)[C@@H]1CCCN1C(=O)CNC(=O)[C@H](CC(C)C)NC(=O)[C@H](CC(C)C)NC(=O)[C@H](Cc1ccc(O)cc1)NC(=O)CNC(=O)[C@H](C)NC(=O)[C@H](CO)NC(=O)[C@H](CC(N)=O)NC(=O)[C@H](CC(C)C)NC(=O)[C@@H](NC(=O)[C@H](Cc1c[nH]c2ccccc12)NC(=O)CNC)[C@@H](C)O)C(=O)N[C@@H](CCCN=C(N)N)C(N)=O",
    "unit abbreviation": "h",
    "half-life": 4.8
  }
]

Qu. State, in one line, measured half-life of CCCCCCCCCCCCCCCC(=O)NCCCC[C@H](NC(=O)[C@H](CCCCN)NC(=O)[C@H](CCCCN)NC(=O)CNC(=O)[C@H](CC(C)C)NC(=O)[C@H](CC(C)C)NC(=O)[C@H](Cc1ccc(O)cc1)NC(=O)CNC(=O)[C@H](C)NC(=O)[C@H](CO)NC(=O)[C@H](CC(N)=O)NC(=O)[C@H](CC(C)C)NC(=O)[C@@H](NC(=O)[C@H](Cc1c[nH]c2ccccc12)NC(=O)CNC)[C@@H](C)O)C(=O)N[C@@H](CCCCN)C(N)=O
Ans. 5.6

Qu. State, in one line, measured half-life of CCCCCCCCCCCCCCCC(=O)NCCCC[C@H](NC(=O)[C@H](CCCCN)NC(=O)[C@H](CCCCN)NC(=O)[C@H](CCCCN)NC(=O)[C@H](CCCCN)NC(=O)[C@H](CC(C)C)NC(=O)[C@H](CC(C)C)NC(=O)[C@H](Cc1ccc(O)cc1)NC(=O)CNC(=O)[C@H](C)NC(=O)[C@H](CO)NC(=O)[C@H](CC(N)=O)NC(=O)[C@H](CC(C)C)NC(=O)[C@@H](NC(=O)[C@H](Cc1c[nH]c2ccccc12)NC(=O)CNC)[C@@H](C)O)C(=O)N[C@@H](CCCCN)C(N)=O (H-[Sar]WTLNSAGYLLKKKKK(Palmitoyl)K-NH2)
Ans. 8.7

Qu. State, in one line, measured half-life of CCCCCCCCCCCCCCCC(=O)NCCCC[C@H](NC(=O)[C@H](CCCCN)NC(=O)[C@@H]1CCCN1C(=O)CNC(=O)[C@H](CC(C)C)NC(=O)[C@H](CC(C)C)NC(=O)[C@H](Cc1ccc(O)cc1)NC(=O)CNC(=O)[C@H](C)NC(=O)[C@H](CO)NC(=O)[C@H](CC(N)=O)NC(=O)[C@H](CC(C)C)NC(=O)[C@@H](NC(=O)[C@H](Cc1c[nH]c2ccccc12)NC(=O)CNC)[C@@H](C)O)C(=O)N[C@@H](CCCCN)C(=O)N[C@@H](CCCCN)C(N)=O
Ans. 8.6

###

Measured half-life, listed per entry for reference.
Assay: Metabolic stability in rat serum assessed as half life at pH 7.5
Format: ADME, cell-free

Solved cases below.
[
  {
    "smiles text": "CCCCCCCCCCCCCCCC(=O)NCCCC[C@H](NC(=O)[C@H](CCCCN)NC(=O)[C@H](CCCCN)NC(=O)[C@H](CCCCN)NC(=O)[C@@H]1CCCN1C(=O)CNC(=O)[C@H](CC(C)C)NC(=O)[C@H](CC(C)C)NC(=O)[C@H](Cc1ccc(O)cc1)NC(=O)CNC(=O)[C@H](C)NC(=O)[C@H](CO)NC(=O)[C@H](CC(N)=O)NC(=O)[C@H](CC(C)C)NC(=O)[C@@H](NC(=O)[C@H](Cc1c[nH]c2ccccc12)NC(=O)CNC)[C@@H](C)O)C(N)=O",
    "half-life": "> 10 h"
  },
  {
    "smiles text": "CCCCCCCCCCCCCCCC(=O)NCCCC[C@H](NC(=O)[C@H](CCCCN)NC(=O)[C@H](CCCCN)NC(=O)[C@@H]1CCCN1C(=O)CNC(=O)[C@H](CC(C)C)NC(=O)[C@H](CC(C)C)NC(=O)[C@H](Cc1ccc(O)cc1)NC(=O)CNC(=O)[C@H](C)NC(=O)[C@H](CO)NC(=O)[C@H](CC(N)=O)NC(=O)[C@H](CC(C)C)NC(=O)[C@@H](NC(=O)[C@H](Cc1c[nH]c2ccccc12)NC(=O)CCCCCN)[C@@H](C)O)C(=O)N[C@@H](CCCCN)C(N)=O",
    "half-life": "> 10 h"
  }
]

// next entry
Qu. State, in one line, measured half-life of CCCCCCCCCCCCCCCC(=O)NCCCC[C@H](NC(=O)[C@@H](CCCCN)NC(=O)[C@@H](CCCCN)NC(=O)[C@@H]1CCCN1C(=O)CNC(=O)[C@H](CC(C)C)NC(=O)[C@H](CC(C)C)NC(=O)[C@H](Cc1ccc(O)cc1)NC(=O)CNC(=O)[C@H](C)NC(=O)[C@H](CO)NC(=O)[C@H](CC(N)=O)NC(=O)[C@H](CC(C)C)NC(=O)[C@@H](NC(=O)[C@H](Cc1c[nH]c2ccccc12)NC(=O)CNC)[C@@H](C)O)C(=O)N[C@H](CCCCN)C(N)=O
Ans. > 10 h
